biological target: human TRPV1 (Homo sapiens (Human), UniProt Q8NER1); experiment: Capsaicin Activation Assay (intracellular Ca2+, FLIPR); type: cell-based; settings: recombinant HEK293 cells expressing hTRPV1, 50 nM capsaicin
Sequence (Q8NER1 whole entry): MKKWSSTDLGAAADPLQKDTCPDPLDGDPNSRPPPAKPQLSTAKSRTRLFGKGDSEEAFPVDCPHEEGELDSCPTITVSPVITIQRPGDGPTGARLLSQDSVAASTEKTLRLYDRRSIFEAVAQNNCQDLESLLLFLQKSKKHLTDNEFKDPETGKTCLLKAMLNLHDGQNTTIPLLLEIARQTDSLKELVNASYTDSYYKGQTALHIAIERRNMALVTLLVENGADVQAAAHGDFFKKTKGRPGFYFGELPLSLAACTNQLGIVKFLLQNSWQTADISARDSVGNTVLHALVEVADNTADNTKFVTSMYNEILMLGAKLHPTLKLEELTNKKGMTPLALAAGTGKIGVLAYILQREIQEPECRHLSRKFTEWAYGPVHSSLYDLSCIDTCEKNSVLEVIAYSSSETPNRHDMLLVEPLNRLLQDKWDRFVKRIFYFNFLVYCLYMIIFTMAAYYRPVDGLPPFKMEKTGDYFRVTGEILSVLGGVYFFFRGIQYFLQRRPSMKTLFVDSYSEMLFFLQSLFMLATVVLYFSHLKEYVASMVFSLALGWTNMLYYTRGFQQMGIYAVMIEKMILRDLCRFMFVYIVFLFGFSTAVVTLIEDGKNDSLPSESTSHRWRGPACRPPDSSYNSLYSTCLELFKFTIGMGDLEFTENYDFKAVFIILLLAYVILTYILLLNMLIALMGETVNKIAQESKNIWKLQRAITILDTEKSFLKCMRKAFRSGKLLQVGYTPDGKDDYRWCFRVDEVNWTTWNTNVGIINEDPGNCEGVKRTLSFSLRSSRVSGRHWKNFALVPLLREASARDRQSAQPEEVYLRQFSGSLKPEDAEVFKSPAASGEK
readout-type: IC50 (nM)

>>> value_reported("Cn1c(=O)ccc2c(NC(=O)N[C@@H]3CC(C)(C)Oc4cc(Br)ccc43)cccc21 [Example 89]")
31
>>> value_reported("C[C@@]1(CF)C[C@@H](NC(=O)Nc2ccc3c(c2)NC(=O)N(CCO)C3)c2ccc(Cl)cc2O1 [Example 59]")
1500
>>> value_reported("CN1C(=O)CCc2ccc(NC(=O)N[C@@H]3CCOc4cc(OC(F)(F)F)ccc43)cc21 [Example 278]")
77
>>> value_reported("Cn1c(=O)ccc2c(NC(=O)N[C@@H]3CC(C)(C)Oc4cc(C(F)(F)F)ccc43)cccc21 [Example 91]")
15
>>> value_reported("CN1Cc2ccc(NC(=O)N[C@@H]3CC(C)(C)Oc4nc(C(F)(F)F)ccc43)cc2NC1=O [Example 208]")
1300
>>> value_reported("CCC1(CC)C[C@@H](NC(=O)Nc2ccc3c(c2)N(C)C(=O)CC3)c2ccc(OC(F)(F)F)cc2O1 [Example 272]")
180
>>> value_reported("CN1C(=O)CCc2ccc(NC(=O)N[C@@H]3CC(CF)(CF)Oc4c(F)cc(F)cc43)cc21 [Example 268]")
1200
>>> value_reported("O=C(Nc1ccc2c(c1)NC(=O)N(CCO)C2)N[C@@H]1CCOc2ccc(F)cc21 [Example 52]")
950

----------
target: human TRPV1 (Homo sapiens (Human)); assay: Capsaicin Activation Assay (intracellular Ca2+, FLIPR); conditions: recombinant HEK293 cells expressing hTRPV1, 50 nM capsaicin
Entries and their measured log10 IC50 follow.
readout-type: log10 IC50 (log10 of the value in nM)

>>> value_reported("CN1Cc2ccc(NC(=O)N[C@@H]3CC(CF)(CF)Oc4c3ccc(Cl)c4F)cc2NC1=O")
2.45
>>> value_reported("CN1Cc2ccc(NC(=O)N[C@@H]3CC(C)(C)Oc4cc(C(F)(F)F)ccc43)cc2NC1=O")
1.93
>>> value_reported("CN1C(=O)CCc2ccc(NC(=O)N[C@@H]3C[C@@](C)(CF)Oc4cc(Cl)ccc43)cc21")
1.41
>>> value_reported("COCC1(COC)C[C@@H](NC(=O)Nc2ccc3c(c2)NC(=O)CC3)c2cc(F)ccc2O1")
2.18
>>> value_reported("CN1C(=O)CCc2ccc(NC(=O)N[C@@H]3CC(CF)(CF)Oc4cc(C(F)(F)F)ccc43)cc21")
2.70
>>> value_reported("Cn1c(=O)ccc2c(NC(=O)N[C@@H]3CC(CF)(CF)Oc4cc(F)ccc43)cccc21")
1.32
>>> value_reported("CN1C(=O)NCc2c(NC(=O)N[C@@H]3CC(C)(C)Oc4c3ccc(F)c4Cl)cccc21")
1.23
>>> value_reported("CN1C(=O)NCc2c(NC(=O)N[C@@H]3CC4(CCCC4)Oc4ccccc43)cccc21")
1.32
>>> value_reported("O=C1CCc2ccc(NC(=O)N[C@@H]3CC4(CCCC4)Oc4ccccc43)cc2N1")
3.85
>>> value_reported("O=C(Nc1ccc2c(c1)NC(=O)N(CCO)C2)N[C@@H]1CC(CF)(CF)Oc2cc(Cl)ccc21")
3.28
>>> value_reported("CCC1(CC)C[C@@H](NC(=O)Nc2ccc3c(c2)NC(=O)N(C)C3)c2cc(F)ccc2O1")
2.30
>>> value_reported("Cn1c(=O)ccc2c(NC(=O)N[C@@H]3CCc4cc(F)ccc43)cccc21")
1.28
>>> value_reported("O=C1COc2ccc(NC(=O)N[C@@H]3CCOc4c3cccc4C(F)(F)F)cc2N1")
2.30
>>> value_reported("Cn1c(=O)ccc2c(NC(=O)N[C@@H]3C[C@@](C)(C(F)F)Oc4ccccc43)cccc21")
1.40
>>> value_reported("CCC1(CC)C[C@@H](NC(=O)Nc2ccc3c(c2)NC(=O)CC3)c2ccc(C(F)(F)F)cc2O1")
1.54
>>> value_reported("CN1C(=O)CCc2ccc(NC(=O)N[C@@H]3C[C@](C)(CF)Oc4cc(C(F)(F)F)ccc43)cc21")
1.18
